The reader will find reported LD50 values listed item by item below.
Experiment: Acute toxicity (LD50) in dd mice
Type: in vivo
Details: mouse, in vivo, ip; dd mice
Give the quantity in mg/kg, number only.

compound	LD50 / mg/kg
CC[C@@]1(O)C[C@H](O[C@H]2C[C@H](N(C)C)[C@H](O[C@H]3C[C@H](O)[C@H](O[C@H]4CCC(=O)[C@H](C)O4)[C@H](C)O3)[C@H](C)O2)c2c(cc3c(c2O)C(=O)c2c(O)cccc2C3=O)[C@H]1C(=O)OC	22.6

Let's switch to this compound now.
Inquiry: Let me know recorded LD50 for CCC1(O)CC(OC2CC(N(C)C)C(OC3CC(O)C(OC4CCC(=O)C(C)O4)C(C)O3)C(C)O2)c2c(cc3c(c2O)C(=O)c2c(O)cc(O)cc2C3=O)C1C(=O)OC (centres unmarked) [2-Hydroxyaclacinomycin A, 2-hydroxyaclacinomycin A] , thanks.
Reply text: 50
